The measurements presented in this section are drawn from paper PMC4448990.

Experiment: plasma and brain concentrations of eslicarbazepine after ESL
Type: in vivo
Details: NMRI, mouse, brain (lipid fraction), intraperitoneal, 200 mg/kg, Brain (lipid fraction) Eslicarbazepine, Amygdala kindling, ESL 200 mg/kg i.p., 15 min
MEASUREMENT_NAME: concentration at 15 min (µM)

- COMPOUND: "NC(=O)N1c2ccccc2C[C@H](O)c2ccccc21 [eslicarbazepine]"
  MEASUREMENT_NAME: "concentration at 15 min"
  UNIT_ANNOTATION: "µM"
  RESULT: 313

* * *

Assay: plasma and brain concentrations of eslicarbazepine after ESL
Type: in vivo
Details: NMRI, mouse, brain (organic phase), intraperitoneal, 200 mg/kg, Brain (organic phase) Eslicarbazepine, Amygdala kindling, ESL 200 mg/kg i.p., 15 min

- MOLECULE: "NC(=O)N1c2ccccc2C[C@H](O)c2ccccc21 [eslicarbazepine]"
  concentration at 15 min [µM]: 174
